assay_text: Plasma concentration in Wistar rat at 1 mg/kg, iv and 5 mg/kg, po
Format: ADME, organism-based
measured_quantity: clearance
Quick note: number first, unit second.

Reported clearance for "CC(C)S(=O)(=O)NC[C@H](C)c1ccc(-n2cc(CO)c(C(F)(F)F)n2)cc1" was 49.7 mL/min/kg

----------
assay_text: Bioavailability in Wistar rat at 2 mg/kg, iv and 10 mg/kg, po
Assay type: ADME, organism-based
settings: in vivo
measured_quantity: bioavailability
Quick note: number first, unit second.

Reported bioavailability for "O=S(=O)(N[C@@H]1Cc2ccc(Cn3cc(CO)c(C(F)(F)F)n3)cc2C1)C(F)(F)F" was 100%
